- assayNotes: Binding affinity to 5'-FAM-pre-miR-372 (unknown origin) assessed as change in total free energy by thermodynamic assay
testReadout: Activity (%)
Numeric only. Scale: %

Could you tell me which Activity is on file for NC[C@@H]1O[C@H](O[C@H]2[C@@H](O)[C@H](O[C@@H]3[C@@H](O)[C@H](N)C[C@H](N)[C@H]3O[C@H]3O[C@H](CO)[C@@H](O)[C@H](O)[C@H]3N)O[C@@H]2CO)[C@H](N)[C@@H](O)[C@@H]1O ?
61

Further, for CN[C@@H]1[C@H](O[C@H]2[C@H](O[C@H]3[C@H](O)[C@@H](O)[C@H](N=C(N)N)[C@@H](O)[C@@H]3N=C(N)N)O[C@@H](C)[C@]2(O)C=O)O[C@@H](CO)[C@H](O)[C@H]1O ?
47

Further, for CN(C)c1ccc(O)c2c1C[C@H]1C[C@H]3[C@H](N(C)C)C(O)=C(C(N)=O)C(=O)[C@@]3(O)C(O)=C1C2=O ?
91

Further, for C[C@H]1c2cccc(O)c2C(=O)C2=C(O)[C@]3(O)C(=O)C(C(N)=O)=C(O)[C@@H](N(C)C)[C@@H]3[C@@H](O)[C@@H]21 ?
78

Further, for CN(C)[C@@H]1C(O)=C(C(N)=O)C(=O)[C@@]2(O)C(O)=C3C(=O)c4c(O)cccc4[C@@](C)(O)[C@H]3[C@H](O)[C@@H]12 ?
90
